assay: Half life in Sprague-Dawley rat at 10 mg/kg, po by LC-MS/MS analysis; assay type: ADME, organism-based; settings: in vivo
EXPERIMENTAL_READOUT: half-life (h)
Just the number in h, nothing appended.

I have this molecule here, CC#CC(CC(=O)O)c1ccc(OCc2ccc3nc(-c4ccc(OC)cc4)cn3c2)cc1 (stereo unspecified) , and I need its recorded half-life.
5.93

Reference for the values: ChEMBL document CHEMBL4622922
